System: MS2 coat protein
ASSAY NAME: apparent KD of MS2 coat protein; designed switch direction (-1 OFF switch, 1 ON switch): 1; higher = weaker reporter binding
CONDITION DESCRIPTION: input ligand: microRNA oligo, concentration not stated
REPORTED PROPERTY: apparent KD of MS2 coat protein (µM)
Output spec: scalar in µM, unitless text.

Request: For the record UUUUUGUUCCGAGGAUAUCCUUUUUUCUUACAUGAGGAUCACCCAUGUAAAGGGAUUGAGUUGUAGGAGAAGGCGGUUUUGUUU [JR_SSNG2_Sub061] (Eterna round: R96, puzzle: Same State NG 2) , what value of apparent KD of MS2 coat protein is listed for MS2 coat protein?
Response: 0.0261

Request: For the record AGUCCAGCCUAAGCUGGACAAAAGCAUGUACAUGAGGAUCACCCAUGUUCAUGUACAAGCUUUUUGCAAGUCAAAAU [Mat - hsa-mir-208a - Mod of JL - 79] (Eterna round: R96, puzzle: Sensor for hsa-mir-208a) , what value of apparent KD of MS2 coat protein is listed for MS2 coat protein?
Response: 0.0191

Request: For the record UGAAUAGUUACAGGAUAUGAGCCGUAAAUUGGGUCAGAAGGGUGGGUGUUCUGCGCGGUGUGUUACAUGAGGAUCACCCAUGUU [SameState NG1 #30] (Eterna round: R96, puzzle: Same State NG 1) , what value of apparent KD of MS2 coat protein is listed for MS2 coat protein?
Response: 0.0998

Request: For the record GGAAACAGAGGAGGAUAUGCAGAGGAUCACCCUGUAGAAGGCCUCGAAAGGAGGAUAUGCAGAGGAUCACCCUGUAGAAGGCCU [pwkr ssNG DX.26] (Eterna round: R96, puzzle: Same State NG 1) , what value of apparent KD of MS2 coat protein is listed for MS2 coat protein?
Response: 0.156

###

Tested on: MS2 coat protein
ASSAY NAME: apparent KD of MS2 coat protein; designed switch direction (-1 OFF switch, 1 ON switch): -1; higher = weaker reporter binding
CONDITION DESCRIPTION: input ligand: FMN 200 uM
REPORTED PROPERTY: apparent KD of MS2 coat protein (nM)
Output spec: scalar in nM, unitless text.

Request: For the record CUAAAUCAUGUAGGAUAUGCGUGGCGAAGCUAUGCAGAAGGACAUGAGGAUCACCCAUGUGCUUCCGUCUGAGUACAGACGGAA [Mat - Exclusion NG 1 - Mod of JL - D25] (Eterna round: R96, puzzle: Exclusion NG 1) , what value of apparent KD of MS2 coat protein is listed for MS2 coat protein?
Response: 77.2

Request: For the record GGUAAGCUAGGAUAUGCUUUGGGAAAGCAUUCCUUCGAUAAACUUGAGGAUCACCCAAGUAGAAGGAGCUUCCC [salish99_ex2_r4_017] (Eterna round: R97, puzzle: Exclusion 2) , what value of apparent KD of MS2 coat protein is listed for MS2 coat protein?
Response: 11.2

Request: For the record AGCUGUGGCCGAGGAUAUCCACAUGAGGAUCACCCAUGUGAAUAGGGAAUUAACCCAUAACCGUGGGAGAAGGCGGUCUCAGCA [Eli eng2 - 049] (Eterna round: R96, puzzle: Exclusion NG 2) , what value of apparent KD of MS2 coat protein is listed for MS2 coat protein?
Response: 55.1

Request: For the record UUUGCAAGCUUUAGAUCCCACAUGAGGAUCACCCAUGUUGCUGCCGUGAGGUAGCUUUUAACUAAUGCUCGUCUUAU [JL TOV1 3.45] (Eterna round: R97, puzzle: Sensor, turn-off variant 1) , what value of apparent KD of MS2 coat protein is listed for MS2 coat protein?
Response: 88.2

Request: For the record GGUCAGCUAGGAUAUACAUGAGGAUCACCCAUGUACUGACCCAUGCGGUAGUCCGCAUGUAGAAGGAGCAAAAU [Cebiin] (Eterna round: R97, puzzle: Exclusion 3) , what value of apparent KD of MS2 coat protein is listed for MS2 coat protein?
Response: 11.3

Request: For the record CCUCCCGCCGUCAGGAUAUGCCGUACCGCUGCGCUCCAGAAGGCACUUGAGGAUCACCCAAGUACCCGUGAGGC [salish99_bmod_ex4_r4_009] (Eterna round: R97, puzzle: Brourd's mod of Exclusion 4) , what value of apparent KD of MS2 coat protein is listed for MS2 coat protein?
Response: 16

Request: For the record GUGGGUUACAUGAGGAUCACCCAUGUAGAGUGGGAAGAGAGAUAGGAUAUGAUGUGAGAAUUAUAUUAGAAGGAUCGAGACUCG [AK ExNG3-2.5] (Eterna round: R96, puzzle: Exclusion NG 3) , what value of apparent KD of MS2 coat protein is listed for MS2 coat protein?
Response: 246

Request: For the record AGGUGUAGAGGAUAUCUCUUCUCUCACAUGAGGAUCACCCAUGUCCUGGGCACCAAGGAGAGAGAAGGCUACACCA [Omei Ex5 D10] (Eterna round: R97, puzzle: Exclusion 5) , what value of apparent KD of MS2 coat protein is listed for MS2 coat protein?
Response: 72.7

Request: For the record AAGAAACAUGAGGAUCACCCAUGUGAGGAUAUGAGCAAGAAAAGAAAAGAAAGAAGAAUCAGAAGGCACAAAGG [salish99-ex1_r3_050] (Eterna round: R96, puzzle: Exclusion 1) , what value of apparent KD of MS2 coat protein is listed for MS2 coat protein?
Response: 68.5

###

Tested on: MS2 coat protein
ASSAY NAME: apparent KD of MS2 coat protein; higher = weaker reporter binding
CONDITION DESCRIPTION: Eterna round: R107; input ligand: theophylline 2 mM
Classify as follows. Reported apparent KD of MS2 coat protein greater than or equal to 70 nM: 1. Reported apparent KD of MS2 coat protein below: -1.

Request: Could you please find out whether AGUAAUAAUAUAAAUAAUAUUAGGUCAUGGCGAGGACCGGUACGGCCGCCACUCGGUUACAUGAGGAUCACCCAUGUCCCGCUUA [Exclusion - Tryptophan A] has apparent KD of MS2 coat protein that meets 70 nM or exceeds it?
Response: -1

Request: Could you please find out whether AGCACGGUGAUGGUAGCCGGACGCUAGGUACGAGGACCGGUACGGCCGCCACUCGAAGUCCUACGACAUGAGGAUCACCCAUGUA [Same State Trp A GF13] has apparent KD of MS2 coat protein that meets 70 nM or exceeds it?
Response: 1

Request: Could you please find out whether CCUGCGUUUCUUCUUUCGCAGGAGGAUGAUACCAGUAGGGAAACCUACCCUUGGCAGCAUGGGACAUGAGGAUCACCCAUGUGGA [SSThA NP+V+V2 #1] has apparent KD of MS2 coat protein that meets 70 nM or exceeds it?
Response: 1

Request: Could you please find out whether CCUAUCCAGUCGGCCGCCACUGACCAUUUGGAACAGUGGGUGAAAACAUGAGGAUCACCCAUGUACAGGACCGGGACUGUAUAGG [Ex Tryptophan B 20] has apparent KD of MS2 coat protein that meets 70 nM or exceeds it?
Response: -1

Request: Could you please find out whether ACGUAAAGCAGAAGGAGCGUCUUAAUUCUACAUGAGGAUCACCCAUGUUUACAUUGAAUAUGACAGGUAGGUCGCUGAAGUACGA [JR_SSArginiB_Sub001] has apparent KD of MS2 coat protein that meets 70 nM or exceeds it?
Response: -1

Request: Could you please find out whether CCCAGUUAUAACAAAGGAAUAAUACUCGAAGGAGCGUCAUAGUAGGCAGGUAGGUCGCGAGACAUGAGGAUCACCCAUGUAGAGA [qvvmullin] has apparent KD of MS2 coat protein that meets 70 nM or exceeds it?
Response: -1

Request: Could you please find out whether GCACCAGGUACGGAUACCAGAGCAAGCCAAAUGAGUGAACUUGAGGAUCACCCAAGUUUGCUCCCUUGGCAGCCGUACCUGGUGC [ETB NP+V+V2 #12 Diff Apt, +-Same Structure] has apparent KD of MS2 coat protein that meets 70 nM or exceeds it?
Response: -1

Request: Could you please find out whether CCGCACAUGAGGAUCACCCAUGUCAGGGAUACCAGCCCAGACAUGGGCCCUUGGCAGCCCUGUAGCUGACGAAAGUCAGCAGCGG [Omei Theo A SS A v1] has apparent KD of MS2 coat protein that meets 70 nM or exceeds it?
Response: -1

Request: Could you please find out whether GACAUGAGGAUCACCCAUGUGUAACCAGAAGGAGCGUGCGAAAGCACAGGUAGGUCGCUGGUGGGUUUAGGUUUAGUAGGUGUUC [SSAA NP+V+V2 #3] has apparent KD of MS2 coat protein that meets 70 nM or exceeds it?
Response: 1

Request: Could you please find out whether AUUAAGGAUAUAUAGAAGGCGGAGAAGAGACGAGGACCGGUACGGCCGCCACUCGUGUUAGUUAACAUGAGGAUCACCCAUGUAA [Turkey 2] has apparent KD of MS2 coat protein that meets 70 nM or exceeds it?
Response: 1

Request: Could you please find out whether ACAUGAGGAUCACCCAUGUACAUCACCCGACGAGGACCGGUACGGCCGCCACUCGGGUAUAUAUAUACAUCGGGUGAUUUUACGU [#22 Tryptophan A Same State] has apparent KD of MS2 coat protein that meets 70 nM or exceeds it?
Response: -1

Request: Could you please find out whether CGGCCCUCACUUGAGGAUCACCCAAGUGAUACCAGCCUGGAAACAGGCCCUUGGCAGCACUAGGUCAUCAAAGAUGACCAAGCCG [TheoAX 28 #OpenEnded #AlternativeMS2] has apparent KD of MS2 coat protein that meets 70 nM or exceeds it?
Response: 1

Request: Could you please find out whether CAAGAACAGCCAGAUCUUGGCAGCUGAGAAGGAGCGCGGGAAGCCGCAGGUAGGUCGCUCAGGAAUACAUGAGGAUCACCCAUGU [Beoror] has apparent KD of MS2 coat protein that meets 70 nM or exceeds it?
Response: -1

Request: Could you please find out whether CUGGACAUGAGGAUCACCCAUGUAAAUCCUCGAGGACCGGUACGGCCGCCACUCGAACGAGUGGCGCGCGAGCGCGCGCUCGCGC [aJa] has apparent KD of MS2 coat protein that meets 70 nM or exceeds it?
Response: -1

Request: Could you please find out whether AUCAUGGCCAUCGAUACCAGCUACAUGAGGAUCACCCAUGUAAACGGCCCGGUGAGAUGUAGCCCUUGGCAGCGAAGGGUCGAGG [Inenenatti] has apparent KD of MS2 coat protein that meets 70 nM or exceeds it?
Response: 1

Request: Could you please find out whether GACGCAUGAGUUGGAACAGCUCAUGGGUCGCGAGGACCGGUACGGCCGCCACUCGGCUGUACAUGAGGAUCACCCAUGUCAGGGU [#1 Same State - Tryptophan A Attempt #30 (HarryS)] has apparent KD of MS2 coat protein that meets 70 nM or exceeds it?
Response: 1

Request: Could you please find out whether AUGCAUAUCAGAAGGAGCGUCAUUAACAUGAGGAUCACCCAUGUAACAUUGAAUUCGAUGAGACAGGUAGGUCGCUGAAUAGUAA [SS-ArgB26] has apparent KD of MS2 coat protein that meets 70 nM or exceeds it?
Response: -1

Request: Could you please find out whether AGCCGCGUUCUUUCUUUCUUUCUAGCGGCACGAGGACCGGUACGGCCGCCACUCGCCCACAUGAGGAUCACCCAUGUAGUGGGUG [The One Ring #2] has apparent KD of MS2 coat protein that meets 70 nM or exceeds it?
Response: -1

Request: Could you please find out whether AUUGUCGCGUCGGCCGCCACUGUCAUGGUUUUCGUGGAACACAUGAGGAUCACCCAUGUAAUUGACAGGACCGGGACGUGGCGGC [Vevea] has apparent KD of MS2 coat protein that meets 70 nM or exceeds it?
Response: -1

Request: Could you please find out whether ACCUACACGGAGACGUGUAGGAGUAAUGAUACCAGCAUGGAGACAUGCCCUUGGCAGCGUUACAUGAGGAUCACCCAUGUAGUGC [ETHA #5] has apparent KD of MS2 coat protein that meets 70 nM or exceeds it?
Response: -1

Request: Could you please find out whether `UGUAUGGACUGAAGGAGCGGAUGAUAUCAUGAGGAUCACCCAUGGAAUAAGGCGAAAGCCAUCCAGGUAGGUCGCAGUCCAUACU` has apparent KD of MS2 coat protein that meets 70 nM or exceeds it?
Response: 1
